system: HeLa (human cervical cancer) cells; assay: MTT cytotoxicity assay, HeLa; type: cell-based; settings: 72 h, 3 days, read-out: Means of IC50
EXPERIMENTAL READOUT: pIC50
Scale explanation: pIC50 corresponds to minus log10 of a concentration expressed in moles per litre.

GET /value?item= `CC(C)=CCc1c2c(c3occ(-c4ccc(O)c(O)c4)c(=O)c3c1O)C=CC(C)(C)O2` &field=pIC50 returns 5.13

---

Tested on: Hep3B (human liver cancer) cells
Experiment: MTT cytotoxicity assay, Hep3B
Assay type: cell-based
Settings: 72 h, Hep 3B (Liver), 3 days, read-out: Means of IC50
Method: Pomiferin is dissolved in DMSO at a final concentration of 100 mmol/L and stored at −20° C. Cytotoxicity is assessed using the 3-(4,5-dimethylthiazol-2-yl)-2,5-diphenyltetrazolium bromide assay. […] Absorbance at 585 nm is determined from each well the next day. The percentage of cell viability is calculated using the following formula: Cell viability (%)=Cells number treated/Cells number DMSO control×100. […]
EXPERIMENTAL READOUT: pIC50
Scale explanation: pIC50 corresponds to minus log10 of a concentration expressed in moles per litre.

GET /value?item= `CC(C)=CCc1c2c(c3occ(-c4ccc(O)c(O)c4)c(=O)c3c1O)C=CC(C)(C)O2` &field=pIC50 returns 4.79

---

test system: HCT-116 p53−/− isogenic colon cancer cells; experiment: MTT cytotoxicity assay, HCT116 p53−/−; format: cell-based; details: Homo sapiens, HCT-116, 72 h, HCT116 p53−/− (p53-deficient), 3 days, read-out: Means of IC50
EXPERIMENTAL READOUT: pIC50
Scale explanation: pIC50 corresponds to minus log10 of a concentration expressed in moles per litre.

GET /value?item= `CC(C)=CCc1c2c(c3occ(-c4ccc(O)c(O)c4)c(=O)c3c1O)C=CC(C)(C)O2` &field=pIC50 returns 5.21
